From: the NIST ThermoML archive (doi:10.1016/j.jct.2013.05.011)

Below is a list of entries, each paired with its recorded activity coefficient value.
- experimental.protocol: activity coefficient (dimensionless); of the first substance listed, at infinite dilution; xn = mol fraction of the nth substance listed
- reported.conditions: 363.2 K; 101 kPa; Liquid; Chromatography; x1 = 0
Answer using only a numeral; do not append any unit.

Please review the entries below; each comes with its answer.
| compound | activity coefficient |
| --- | --- |
| CCCO [propan-1-ol] + OCCOCCOCCO | 1.31 |
| C=CCCCC [hex-1-ene] + OCCOCCO | 38.9 |
| C#CCCCC [1-hexyne] + OCCOCCOCCO | 6.69 |
| CC(C)O [propan-2-ol] + OCCOCCOCCO | 1.38 |
| CCCCCCCCC [nonane] + OCCOCCO | 193 |

Input line: Fill blank: measured activity coefficient of the compound CCCCCCC [heptane] + OCCOCCO is ____.
Output line: 95.4

Input line: Need activity coefficient, item C#CCCC [1-pentyne] + OCCOCCOCCO
Output line: 5.01
